Source of measurements: ChEMBL document CHEMBL2040780

- Test system: Rattus norvegicus
- measurement-protocol: Cardiotoxicity in Wistar rat assessed as effect on Q-T interval at 10 mg/kg, iv after 1 min
- Type: toxicity, organism-based
- Design: dose 10 mg/kg, route intravenous
- condition-context: in vivo
If the reported Activity equals or exceeds 100 ms, assign fulfilled. If not, assign not fulfilled.

Confirm if Activity reported for the compound CCOc1ccccc1N1CCN(CC(O)CN2C(=O)N(C)C(=O)C2(c2ccccc2)c2ccccc2)CC1.Cl (racemic) is 100 ms or above.
fulfilled

Textbook exercise: given the entry CN1C(=O)N(CC(O)CN2CCN(c3ccccc3Cl)CC2)C(c2ccccc2)(c2ccccc2)C1=O.Cl (racemic) , state whether its Activity is greater than or equal to 100 ms.
not fulfilled

Is the recorded value of Activity equal to or greater than 100 ms for this compound? `COC(=O)CN1C(=O)N(CCCCN2CCN(c3ccccc3OC)CC2)C(c2ccccc2)(c2ccccc2)C1=O.Cl`
not fulfilled

Please indicate if the recorded Activity for C=CC(C(=O)OC)N1C(=O)N(CC(O)CN2CCN(c3ccccc3OC)CC2)C(c2ccccc2)(c2ccccc2)C1=O.Cl (racemic) meets or exceeds 100 ms.
not fulfilled

hey, is Activity for this one >= 100 ms? COC(=O)C(C)N1C(=O)N(CC(O)CN2CCN(c3ccccc3OC)CC2)C(c2ccccc2)(c2ccccc2)C1=O.Cl (racemic)
not fulfilled

I'd appreciate it if you could say whether CN1C(=O)N(CC(O)CN2CCN(c3ccccc3)CC2)C(c2ccccc2)(c2ccccc2)C1=O.Cl (racemic) has Activity at least equal to 100 ms.
fulfilled

Would you say COC(=O)CN1C(=O)N(CC(O)CN2CCN(c3ccccc3F)CC2)C(c2ccccc2)(c2ccccc2)C1=O.Cl (racemic) shows Activity at minimum 100 ms?
not fulfilled
